// values below are reported Human primary T Cell Binding (FOI)
# ASSAYED TARGET: T1, human CD3 (human, UniProt P07766 23-207; P04234 22-171; P09693 23-182)
# T1 construct: whole, on cells; also called CD3 on Jurkat cells; CD3 on human primary T cells
# T1 sequence (P07766 23-207, chain 1 of 3): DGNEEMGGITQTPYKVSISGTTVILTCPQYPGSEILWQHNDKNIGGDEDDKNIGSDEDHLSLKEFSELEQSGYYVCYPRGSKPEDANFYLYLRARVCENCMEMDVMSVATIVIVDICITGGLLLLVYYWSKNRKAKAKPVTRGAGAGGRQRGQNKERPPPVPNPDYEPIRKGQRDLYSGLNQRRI
# T1 sequence (P04234 22-171, chain 2 of 3): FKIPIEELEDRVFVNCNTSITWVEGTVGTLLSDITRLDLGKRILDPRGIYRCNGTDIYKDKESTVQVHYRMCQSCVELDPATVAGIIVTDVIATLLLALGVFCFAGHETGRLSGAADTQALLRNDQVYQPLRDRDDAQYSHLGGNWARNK
# T1 sequence (P09693 23-182, chain 3 of 3): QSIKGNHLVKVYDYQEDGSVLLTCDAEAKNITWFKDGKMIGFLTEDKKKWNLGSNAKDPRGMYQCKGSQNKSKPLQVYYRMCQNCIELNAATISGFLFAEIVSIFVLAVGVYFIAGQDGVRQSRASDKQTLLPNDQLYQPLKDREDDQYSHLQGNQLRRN
# ASSAY PROTOCOL: flow cytometry, human primary T cells, 25 nM antibody
OBSERVABLE: Human primary T Cell Binding (FOI)

INSERT INTO measurements (binder, observable, result) VALUES
  ('mAb 303 (antibody, V domains shown, VH and VL only) VH: EVHLLESGGGLVQPGGSLRLSCAASGFTFSSYAMNWVRQAPGKGLEWISIISGGRRSGITYYAASVKGRFTISRDNSKNTLDLQMNSLRAEDTAVYYCAKMYNYYYYYIDVWGKGTTVTVSS VL: SYELTQPLSVSVALGQTARITCGGNNIGSKDVHWYQQKPGQAPVLVIYRDSNRPSGIPERFSGSNSGNTATLTISRAQAGDEADYYCQVWDSNTAVFGGGTQLTAL', 'Human primary T Cell Binding (FOI)', '256 FOI'),
  ('mAb 316 (antibody, V domains shown, VH and VL only) VH: EVQLLESGGGLVQPGGSRRLSCAASGFTFRTYAMSWVRQAPGKGLEWVSVINGRGDDTNYADSVKGRFTISRDNSKNILFLQMNSLRAEDTAVYYCAKKYSYYYYYMDVWGKGTTVTVSS VL: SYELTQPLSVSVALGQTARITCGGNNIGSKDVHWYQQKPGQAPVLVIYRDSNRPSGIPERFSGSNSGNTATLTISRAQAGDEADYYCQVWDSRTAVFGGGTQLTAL', 'Human primary T Cell Binding (FOI)', '241 FOI');
